src = PubChem BioAssay (NCI)

Test system: MALME-3M melanoma
Assay Procedure: NCI tumour cell line growth inhibition, 48 h; in the data active = GI50 below about 0.43 µM; inactive = the rest
Output constraint: value belongs to TRUE = active, FALSE = inactive

// outcome(item) with item = O=C1C(=C([O-])c2ccccc2)C(=O)c2ccccc21.O=C1C(=C([O-])c2ccccc2)C(=O)c2ccccc21.[Ni+2]
FALSE

Again, but for CSc1ccc(C(=O)/C=C/c2ccc(Cl)cc2Cl)cc1
FALSE

Again, but for COc1ccc2c(c1)/C(=N/OC(C)=O)c1c-2c(OC)nc2ccccc12
FALSE

Again, but for CN(CCCCCl)P(=O)(OCc1ccc([N+](=O)[O-])o1)OCC1OC(n2cc([N+](=O)[O-])c(=O)[nH]c2=O)CC1O (stereo not given)
FALSE

Again, but for COc1ccc2nc3ccccc3c(NCCNCC(C)O)c2c1 (stereo not given)
TRUE

---

System: SW-620 colon
Assay Procedure: NCI tumour cell line growth inhibition, 48 h
Measured Property: TGI

Lab request: please report TGI under test system SW-620 colon for Cc1c(C(N)=O)sc2nc(C)n(/N=c3\scc(-c4ccccc4)n3Cc3ccccc3)c(=O)c12
> 100 µM

Again, but for O=c1/c(=C/c2ccccn2)sc2nc3cc4c(cc3n12)OCCO4
> 100 µM

Again, but for COc1ccc2c(c1)-c1c(c3cc(OC)ccc3n(CCN(C)C)c1=O)C2=O
2.95 µM

Again, but for CCCCCCCCCCCCOC1C(COCCN2CCCCC2)OC2OC(C)(C)OC21 (stereo not given)
3.23 µM

Again, but for CCS(=O)(=O)c1ccc(OC)c(Nc2ncc(-c3cccc(F)c3)o2)c1
> 25 µM

Again, but for CCN1C(=O)N(CC)C2C1N=C(SC)N2/N=C/C=C/c1ccccc1OC (stereo not given)
> 100 µM

Again, but for CC[C@]12C=CCN3CC[C@@]4(c5cc(Br)c(OC)cc5N(C)[C@H]4[C@@](O)(C(=O)NC(Cc4c[nH]c5ccccc45)C(=O)OC)[C@@H]1O)[C@@H]32 (stereo not given in full)
> 100 µM

Again, but for COc1cc(S(=O)(=O)Nc2ccc(-c3csc(N4C(=O)CSC4c4ccccc4O)n3)cc2)ccc1Cl (stereo not given)
> 100 µM

Again, but for COc1ccc(-c2[nH]ncc2Nc2cc(OC)c(OC)c(OC)c2)cc1
> 100 µM

Again, but for COc1ccc2c(c1)[n+]([O-])c(-c1ccccc1Cl)c(N)[n+]2[O-]
> 100 µM

Again, but for Cc1ccc(NC(=O)C2C3CCC(O3)C2C(=O)O)cc1 (stereo not given)
> 45.1 µM

Again, but for COc1ccc2nc3ccccc3c(NCCNCC(C)O)c2c1 (stereo not given)
12.5 µM

Again, but for O=C1C(=C([O-])c2ccccc2)C(=O)c2ccccc21.O=C1C(=C([O-])c2ccccc2)C(=O)c2ccccc21.[Ni+2]
> 100 µM

Again, but for COc1cc(C2NC(=O)C(C#N)=C(Nc3cccc(C)c3)S2)ccc1O (stereo not given)
> 100 µM

Again, but for CN1CCN(c2ccc(NC3=CC(=O)c4ncncc4C3=O)cc2)CC1
1.27 µM

Again, but for O=C1NC(=NCCc2ccc(Br)cc2)S/C1=C\c1ccc2ncccc2c1
> 25 µM

Again, but for COc1ccc2[nH]c3c(c2c1)CC(=O)N1CCC[C@H](C1)CC31OCCCO1
> 100 µM

Again, but for O=C1c2cccnc2-c2nccc3c2c1nc1ccccc13
0.237 µM

Again, but for COC(=O)C(CCC1(C)OCCO1)=[N+]=[N-]
> 100 µM

Again, but for O=C1Nc2ccc(Br)cc2/C1=N/N1C(=O)C(=O)N(C2CCCCC2)C1=S
14.8 µM
